Target: EEA1 1347–1411 (Homo sapiens)
Sequence (Q15075 1347-1411): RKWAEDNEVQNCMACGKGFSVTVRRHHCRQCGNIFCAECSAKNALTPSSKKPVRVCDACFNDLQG
property label: Kd

Reported Kd for O=P(O)(O)O[C@@H]1[C@H](O)[C@H](OP(=O)(O)O)[C@@H](O)[C@H](O)[C@H]1O [inositol 1,3-bisphosphate] : what is it?
> 300 µM

====

Molecular target: Pib2 419–625 (Saccharomyces cerevisiae)
Sequence (P53191 419-625): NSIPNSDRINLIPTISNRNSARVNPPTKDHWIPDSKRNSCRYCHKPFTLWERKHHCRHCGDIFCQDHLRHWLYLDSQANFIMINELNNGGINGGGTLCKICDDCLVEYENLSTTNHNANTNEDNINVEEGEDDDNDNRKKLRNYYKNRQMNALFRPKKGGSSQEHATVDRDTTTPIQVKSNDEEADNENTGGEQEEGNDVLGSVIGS
pKd: −log10 of the molar value.
property label: pKd

Reported pKd for O=P(O)(O)O[C@@H]1[C@H](O)[C@H](OP(=O)(O)O)[C@@H](O)[C@H](O)[C@H]1O [inositol 1,3-bisphosphate] : what is it?
< 3.54

====

Target: Pib2 442–625 (Saccharomyces cerevisiae)
Construct: FYVE domain fragment, start of FYVE domain to beginning of tail motif, residues 442-625; purified; predominantly monomeric by SEC-MALS
Experiment: ITC
Assay type: binding
This section presents compounds with their documented Kd values.
Kindly provide the numeric value in µM only, without the unit symbol.

Reported Kd for "CCCC(=O)OC[C@H](COP(=O)(O)O[C@@H]1[C@H](O)[C@H](OP(=O)(O)O)[C@@H](O)[C@H](O)[C@H]1O)OC(=O)CCC" : what is it?
736

// moving on: another record for Kd
Reported Kd for O=P(O)(O)O[C@@H]1[C@H](O)[C@H](OP(=O)(O)O)[C@@H](O)[C@H](O)[C@H]1O [inositol 1,3-bisphosphate] : what is it?
212
